Experiment: Cytotoxicity against African green monkey Vero E6 cells assessed as reduction in cell viability measured for 3 days by CCK-8 assay
Format: toxicity, cell-based
Details: chlorocebus sabaeus, Vero E6 cells (Vero C1008); time 3 day
MEASURED PROPERTY: CC50 at 72 h

SMILES INPUT	MEASURED PROPERTY	RECORDED MEASUREMENT
COc1cccc2[nH]c(C(=O)N[C@@H](CC(C)C)C(=O)N[C@@H](C[C@@H]3CCNC3=O)C(=O)c3nc4ccccc4s3)cc12	CC50 at 72 h	> 100 µM
O=C(Oc1cncc(Cl)c1)c1cccc2c1CCN2	CC50 at 72 h	> 100 µM

###

Assay: Inhibition of Zika virus NS5 RNA dependent RNA polymerase

COMPOUND	IC50 [µM]
O=C1C2Cc3ccccc3N2[C@@H](c2ccc(O)c(O)c2)N1Nc1ccc([N+](=O)[O-])cc1 (stereo partly drawn)	8.52
COc1ccc([C@H]2N(Nc3ccc([N+](=O)[O-])cc3)C(=O)C3Cc4ccccc4N32)cc1O[Si](C)(C)C(C)(C)C (mixture of isomers)	9.89
COc1ccc([C@H]2N(Nc3ccccc3)C(=O)C3Cc4ccccc4N32)cc1O[Si](C)(C)C(C)(C)C (mixture of isomers)	10.7

###

System: Human immunodeficiency virus 1
Experiment: Antiviral activity against wild type HIV-1 NL4-3 infected in human MT4 cells assessed as reduction in viral replication
Format: functional, organism-based
Conditions: Human immunodeficiency virus 1, NL4-3, MT4
pEC50: −log10 of the molar value.

COMPOUND	pEC50
COP(=O)(c1cc(C)cc(OCC#N)c1)c1c(C(N)=O)[nH]c2ccc(Cl)cc12 (stereo unspecified)	10.10

###

Test system: SARS-CoV-2
Assay type: functional, organism-based, Vero E6
Details: Severe acute respiratory syndrome coronavirus 2, Vero C1008, 48 h
pEC50: −log10 of the molar value.
MEASURED PROPERTY: pEC50

SMILES INPUT	RECORDED MEASUREMENT
Cc1cncc(C#Cc2c[nH]c3ncc(-c4ccc(C(=O)NC5CC5)cc4)cc23)c1	5.74

###

Assay: Cytotoxicity against African green monkey Vero cells assessed as reduction in cell viability measured after 72 hrs by MTT assay
Assay type: toxicity, cell-based
Settings: chlorocebus sabaeus

COMPOUND	CC50 at 72 h
COc1ccc([C@H]2N(Nc3ccc([N+](=O)[O-])cc3)C(=O)C3Cc4ccccc4N32)cc1O[Si](C)(C)C(C)(C)C (mixture of isomers)	> 100 µM
COc1ccc([C@H]2N(Nc3ccccc3)C(=O)C3Cc4ccccc4N32)cc1O[Si](C)(C)C(C)(C)C (mixture of isomers)	> 100 µM
O=C1C2Cc3ccccc3N2[C@@H](c2ccc(O)c(O)c2)N1Nc1ccc([N+](=O)[O-])cc1 (stereo partly drawn)	> 100 µM

###

Target: Human immunodeficiency virus type 1 integrase (Human immunodeficiency virus 1)
Sequence (Q7ZJM1 whole entry): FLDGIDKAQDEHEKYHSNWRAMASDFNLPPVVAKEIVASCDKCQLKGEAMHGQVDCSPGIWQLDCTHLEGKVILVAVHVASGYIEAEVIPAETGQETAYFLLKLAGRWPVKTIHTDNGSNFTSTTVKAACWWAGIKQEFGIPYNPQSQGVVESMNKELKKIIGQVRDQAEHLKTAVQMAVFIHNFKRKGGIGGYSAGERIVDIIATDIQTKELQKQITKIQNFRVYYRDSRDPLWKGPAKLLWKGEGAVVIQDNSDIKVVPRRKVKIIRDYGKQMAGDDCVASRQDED
Assay: Inhibition of HIV-1 integrase
pIC50: −log10 of the molar value.

SMILES INPUT	MEASURED ON	pIC50
O=C1c2c(ccc(O)c2O)CN1Cc1ccc(O)cc1	Human immunodeficiency virus type 1 integrase (Human immunodeficiency virus 1)	8.12

###

Tested on: Respiratory syncytial virus
Experiment: Antiviral activity against RSV-A2 infected in human HEp-2 cells incubated for 4 days by Cell Titer Glo assay
Type: functional, organism-based
Conditions: A2, HEp-2, 96 h

SMILES INPUT	EC50 (µM)
O=C1C(=O)N(Cc2cccc3ccccc23)c2ccc(Br)cc21	6.8
